Origin of values: ChEMBL document CHEMBL5058577

# Tested on: HEK-293T
# measurement notes: Multiplex assay against HEK293T
# Assay type: toxicity, cell-based
# recorded conditions: human, 24 h, 10 µM, compound concentration 10 uM, replicate 1
Binary label based on Total Cell Count with cut-off 400: below gives MET, not below gives NOT MET.

compound: O=C(NCCN1CCC(n2c(=O)[nH]c3cc(Cl)ccc32)CC1)c1ccc(F)cc1 [HALOPEMIDE]
class assignment: NOT MET
--
compound: N#Cc1c(Oc2cccc(OS(=O)(=O)CCCC(F)(F)F)c2)cccc1C(F)(F)F
class assignment: MET
--
compound: CCCCCC(O)/C=C/[C@H]1C(=O)CC(O)C1C/C=C\CCCC(=O)O (some centres undefined)
class assignment: NOT MET
--
compound: CC(C)(C)c1cc(NC(=O)Nc2ccc(-c3cn4c(n3)sc3cc(OCCN5CCOCC5)ccc34)cc2)no1
class assignment: NOT MET
--
compound: Br.CS(=O)(=O)Nc1c(O)ccc2c1CCCC2C1=NCCN1 (centres undefined)
class assignment: NOT MET
--
compound: Cl.N=C(N)NC(=O)Cc1c(Cl)cccc1Cl [GUANFACINE HYDROCHLORIDE]
class assignment: MET
--
compound: CN1CCN(c2cc(-c3ccccc3)nc(N)n2)CC1
class assignment: NOT MET

* * *

# Tested on: Fibroblast
# measurement notes: Multiplex assay against human fibroblast
# Type: toxicity, cell-based
# recorded conditions: 48 h, 1 µM, compound concentration 1 uM, replicate 2
# key: entry, value: Population Apoptotic (%)

molecule: Cc1noc(-c2ccc(-c3ccc(CC(=O)O)cc3)cc2)c1NC(=O)O[C@H](C)c1ccccc1Cl
Population Apoptotic (%): 60
//
molecule: Cc1sc2c(c1C)C(c1ccc(Cl)cc1)=N[C@@H](CC(=O)NCCCCCCCCNC(=O)COc1cccc3c1C(=O)N(C1CCC(=O)NC1=O)C3=O)c1nnc(C)n1-2 (some centres undefined)
Population Apoptotic (%): 93
//
molecule: CC(=O)Nc1cccc2c1c(Sc1ccc(Cl)cc1)c(C)n2CC(=O)O
Population Apoptotic (%): 57
//
molecule: CN[C@@H](C)C(=O)N[C@H](C(=O)N1CCC[C@H]1C(=O)Nc1snnc1-c1ccccc1)C1CCCCC1
Population Apoptotic (%): 57

* * *

# Test system: U2OS
# measurement notes: Multiplex assay against U2OS
# Assay type: toxicity, cell-based
# recorded conditions: human, 48 h, 1 µM, compound concentration 1 uM, replicate 1
Parameter: Population Healthy Nuclei (%). Scope: all listed entries.
measurement name: Population Healthy Nuclei (%)

compound: CCCOc1ccc2[nH]cc(C3=CCNCC3)c2n1.Cl
tgt: U2OS
quantitative readout: 69
--
compound: CCCCC(=O)N(Cc1ccc(-c2ccccc2-c2nnn[nH]2)cc1)[C@H](C(=O)O)C(C)C
tgt: U2OS
quantitative readout: 75
--
compound: CC(C)(C)c1cc(NC(=O)Nc2ccc(-c3cn4c(n3)sc3cc(OCCN5CCOCC5)ccc34)cc2)no1
tgt: U2OS
quantitative readout: 61
--
compound: Cc1cnc(-c2cc(N3CCN(C(=O)CCS(C)(=O)=O)CC3)ncc2Cl)c(C)c1
tgt: U2OS
quantitative readout: 63
--
compound: N#Cc1cc(F)cc(-c2nc(-c3ccc(F)cn3)no2)c1
tgt: U2OS
quantitative readout: 71
--
compound: CN1CCN(c2cc(-c3ccccc3)nc(N)n2)CC1
tgt: U2OS
quantitative readout: 69
--
compound: C[C@H](N)COC(=O)[C@@H](CCCCN)NC(=O)Cc1c(-c2ccc3ccccc3c2)[nH]c2c1ccc1ccccc12
tgt: U2OS
quantitative readout: 78
--
compound: Cc1onc(-c2ccccc2Cl)c1C(=O)N(C)c1ccc(Cl)cc1
tgt: U2OS
quantitative readout: 75
--
compound: CN(C)C(=O)Cn1cc(-c2ccc(-c3cncc4ccccc34)cc2)cn1
tgt: U2OS
quantitative readout: 69
--
compound: N#Cc1c(Oc2cccc(OS(=O)(=O)CCCC(F)(F)F)c2)cccc1C(F)(F)F
tgt: U2OS
quantitative readout: 70
--
compound: Cl.NCCc1ccc(O)c(O)c1 [DOPAMINE HYDROCHLORIDE]
tgt: U2OS
quantitative readout: 70
--
compound: NCCc1cn(S(=O)(=O)c2c(Cl)nc3sccn23)c2ccccc12.O=C(O)C(=O)O
tgt: U2OS
quantitative readout: 70
--
compound: CN[C@@H](C)C(=O)N[C@H](C(=O)N1CCC[C@H]1C(=O)Nc1snnc1-c1ccccc1)C1CCCCC1
tgt: U2OS
quantitative readout: 32
--
compound: Cc1cccc(NC(=O)CN2CCC(c3ccccn3)CC2)c1.Cl.Cl
tgt: U2OS
quantitative readout: 72
--
compound: COC[C@@H](c1ccc(C(F)(F)F)cc1)N1CCN(C2(C)CCN(C(=O)c3c(C)ncnc3C)CC2)C[C@@H]1C.O=C(O)/C=C\C(=O)O [VICRIVIROC MALEATE]
tgt: U2OS
quantitative readout: 68
--
compound: CC(/C=C1\SC(=S)N(CCCC(=O)Nc2ccc(C(=O)O)c(O)c2)C1=O)=C\c1ccccc1
tgt: U2OS
quantitative readout: 74
--
compound: Cc1noc(-c2ccc(-c3ccc(CC(=O)O)cc3)cc2)c1NC(=O)O[C@H](C)c1ccccc1Cl
tgt: U2OS
quantitative readout: 75
--
compound: COc1ccccc1N1CCN(C[C@@H](C(=O)NC(C)(C)C)c2ccccc2)CC1.Cl.Cl
tgt: U2OS
quantitative readout: 66
--
compound: CCCCCC(O)/C=C/[C@H]1C(=O)CC(O)C1C/C=C\CCCC(=O)O (some centres undefined)
tgt: U2OS
quantitative readout: 71
